# target.of.assay: T1, human Gro-beta (human, UniProt P19875 35-107)
# T1 sequence (looked up): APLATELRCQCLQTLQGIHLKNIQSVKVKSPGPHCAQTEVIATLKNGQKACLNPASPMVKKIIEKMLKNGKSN
# assay.notes: cell-based or functional assay
observation.type: FLIPR IC50

# binder, recorded.result
data = [
    ("2X810.3 (antibody, IgG1, V domains shown) VH: QIQLQQSGPEVVKPGASVKISCKASGYIFTDNYIDWVQQRPGQGLEWIGWIFPGSGNTKYNEKFKGKATLTVDTFSSTAYMQLSSLTSEDTAVYFCAREIDYDYDGFFDVWGAGTTVTVSS VL: DIVMTPSHTFMSTSVGDRVIITSKASQDVGSAVAWYQQKPGQSPTLLIYWASTRHTGVPDRFTGSGSGTDFTLTISNLQSEDLADYFCQQYSTYPLTFGAGTKLELK", "> 67 µg/mL"),
    ("2X907.15 (antibody, IgG1, V domains shown) VH: EVKLVESGGGLVKPGGSLKLSCAASGFTFSDYYMYWVRQSPEKRLEWVATVSDVGSYTYYSGSVRGRFTISRDNAKNNLYLQMSSLQSEDTAIYYCSRDRTLDYWGQGTSVIVTS VL: QIVLTQSPAIMSASPGEKVTITCNASSSVSYMHWFQQKPGTSPKLWIYSTSNLASGVPARFSGSGSGTSYSLTISRMEAEDAATYYCHQRSSFPPTFGGGTKLEIK", "> 67 µg/mL"),
    ("2B12.1E1 (antibody, IgG2c, V domains shown) VH: EVQLQQSGPELVKPGASVKISCKASGYTFTDYYMNWVKQSHGKSLEWIGDINPNNGNTNYNQKFKGKATLTVDKSSSTAYMEFRSLTSEDSAVYYCAGLGRIFDYWGQGTTLTVSS VL: ENVLTQSPAIMSASPGEKVTMTCRASSSVSSTFLHWYQQKSGASPKLWIYSTSDLASGVPARFSGSGSGTSYSLTISSVEAEDAATYYCQQYSGYPWTFGGGTKLEIK", "> 65.5 µg/mL"),
]

Recorded values, source patent US20120315267A1.
